# Target Or Test System: Mu-opioid receptor (Homo sapiens, UniProt P35372)
# Sequence (P35372 whole entry): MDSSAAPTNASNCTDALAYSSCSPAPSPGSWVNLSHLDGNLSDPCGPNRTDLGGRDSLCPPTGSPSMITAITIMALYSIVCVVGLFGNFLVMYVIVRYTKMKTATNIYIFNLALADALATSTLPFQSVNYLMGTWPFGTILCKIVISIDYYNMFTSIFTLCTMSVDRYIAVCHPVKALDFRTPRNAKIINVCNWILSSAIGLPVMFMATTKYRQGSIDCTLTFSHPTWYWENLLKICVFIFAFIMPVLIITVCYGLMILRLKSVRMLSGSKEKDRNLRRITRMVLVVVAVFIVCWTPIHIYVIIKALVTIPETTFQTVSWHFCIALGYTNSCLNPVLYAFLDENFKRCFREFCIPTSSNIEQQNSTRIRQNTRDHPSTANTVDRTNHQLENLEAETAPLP
# Method Notes: cAMP functional experiment, Mu-opioid receptor (forskolin-induced cAMP accumulation)
Bridge positions count the residues as written; N and C are the ends. Square brackets hold non-standard residues; d marks the D form. Peptide text beside a SMILES is read from it. NMeF = CN[C@@H](Cc1ccccc1)C(=O)O; dOrn = NCCC[C@@H](N)C(=O)O; dDab = NCC[C@@H](N)C(=O)O
Reported Endpoint: IC50 (nM)
Give bare numbers, in nM.

# Compound, Test Result
data = [
    ("CN1C(=O)CNC(=O)[C@@H](NC(=O)[C@@H](N)Cc2ccc(O)cc2)CCCCNC(=O)C[C@H](C(=O)N2CCC[C@H]2C(=O)N[C@@H](CCC(N)=O)C(=O)N[C@@H](CCCNC(=N)N)C(=O)N[C@@H](Cc2ccccc2)C(N)=O)NC(=O)[C@@H]1Cc1ccccc1 [Compound 4] (H-YKG[NMeF][dD]PQRF-NH2; lactam 2-5)", 166),
]

The following compounds each have a reported value; give each one's IC50.
1. CN1C(=O)CNC(=O)[C@H](NC(=O)[C@@H](N)Cc2ccc(O)cc2)CCNC(=O)C[C@@H](C(=O)N2CCC[C@H]2C(=O)N[C@@H](CCC(N)=O)C(=O)N[C@@H](CCCNC(=N)N)C(=O)N[C@@H](Cc2ccccc2)C(N)=O)NC(=O)[C@@H]1Cc1ccccc1 [Compound 9] (H-Y[dDab]G[NMeF]DPQRF-NH2; lactam 2-5)
2. CN1C(=O)CNC(=O)[C@H](NC(=O)[C@@H](N)Cc2ccc(O)cc2)CCCNC(=O)CC[C@@H](C(=O)N2CCC[C@H]2C(=O)N[C@@H](CCC(N)=O)C(=O)N[C@@H](CCCNC(=N)N)C(=O)N[C@@H](Cc2ccccc2)C(N)=O)NC(=O)[C@@H]1Cc1ccccc1 [Compound 11] (H-Y[dOrn]G[NMeF]EPQRF-NH2; lactam 2-5)
3. CN1C(=O)CNC(=O)[C@H](NC(=O)[C@@H](N)Cc2ccc(O)cc2)CCCCNC(=O)C[C@@H](C(=O)N2CCC[C@H]2C(=O)N[C@@H](CCC(N)=O)C(=O)N[C@@H](CCCNC(=N)N)C(=O)N[C@@H](Cc2ccccc2)C(N)=O)NC(=O)[C@@H]1Cc1ccccc1 [Compound 1] (H-Y[dK]G[NMeF]DPQRF-NH2; lactam 2-5)
4. CN1C(=O)CNC(=O)[C@@H](NC(=O)[C@@H](N)Cc2ccc(O)cc2)CCCCNC(=O)C[C@@H](C(=O)N2CCC[C@H]2C(=O)N[C@@H](CCC(N)=O)C(=O)N[C@@H](CCCNC(=N)N)C(=O)N[C@@H](Cc2ccccc2)C(N)=O)NC(=O)[C@@H]1Cc1ccccc1 [Compound 3] (H-YKG[NMeF]DPQRF-NH2; lactam 2-5)
5. CN1C(=O)CNC(=O)[C@H](NC(=O)[C@@H](N)Cc2ccc(O)cc2)CCCCNC(=O)C[C@H](C(=O)N2CCC[C@H]2C(=O)N[C@@H](CCC(N)=O)C(=O)N[C@@H](CCCNC(=N)N)C(=O)N[C@@H](Cc2ccccc2)C(N)=O)NC(=O)[C@@H]1Cc1ccccc1 [Compound 5] (H-Y[dK]G[NMeF][dD]PQRF-NH2; lactam 2-5)

Result:
37.9
84
93.5
70.7
586

Items follow; give IC50 for each.
1. CN1C(=O)CNC(=O)[C@H](NC(=O)[C@@H](N)Cc2ccc(O)cc2)CC(=O)NCCCC[C@@H](C(=O)N2CCC[C@H]2C(=O)N[C@@H](CCC(N)=O)C(=O)N[C@@H](CCCNC(=N)N)C(=O)N[C@@H](Cc2ccccc2)C(N)=O)NC(=O)[C@@H]1Cc1ccccc1 [Compound 6] (H-Y[dD]G[NMeF]KPQRF-NH2; lactam 2-5)
2. CN1C(=O)CNC(=O)[C@H](NC(=O)[C@@H](N)Cc2ccc(O)cc2)CCCCNC(=O)CC[C@@H](C(=O)N2CCC[C@H]2C(=O)N[C@@H](CCC(N)=O)C(=O)N[C@@H](CCCNC(=N)N)C(=O)N[C@@H](Cc2ccccc2)C(N)=O)NC(=O)[C@@H]1Cc1ccccc1 [Compound 2] (H-Y[dK]G[NMeF]EPQRF-NH2; lactam 2-5)

Result:
66.3
48.8

* * *

# Target Or Test System: Mu-opioid receptor (Homo sapiens)
# Method Notes: cAMP functional experiment, Mu-opioid receptor (forskolin-induced cAMP accumulation)
Bridge positions count the residues as written; N and C are the ends. Square brackets hold non-standard residues; d marks the D form. Peptide text beside a SMILES is read from it. NMeF = CN[C@@H](Cc1ccccc1)C(=O)O; dOrn = NCCC[C@@H](N)C(=O)O; dDap = NC[C@@H](N)C(=O)O
Reported Endpoint: IC50 (µM)
Numbers only, in µM.

# Compound, Reported Endpoint, Units Symbol, Test Result
rows = [
    ("CN1C(=O)CNC(=O)[C@H](NC(=O)[C@@H](N)Cc2ccc(O)cc2)CCCCNC(=O)C[C@@H](C(=O)NCC(=O)N[C@@H](CCC(N)=O)C(=O)N[C@@H](CCCNC(=N)N)C(=O)N[C@@H](Cc2ccccc2)C(N)=O)NC(=O)[C@@H]1Cc1ccccc1 [Compound 12] (H-Y[dK]G[NMeF]DGQRF-NH2; lactam 2-5)", "IC50", "µM", 0.0826),
    ("CN1C(=O)CNC(=O)[C@H](NC(=O)[C@@H](N)Cc2ccc(O)cc2)CCCNC(=O)C[C@@H](C(=O)N2CCC[C@H]2C(=O)N[C@@H](CCC(N)=O)C(=O)N[C@@H](CCCNC(=N)N)C(=O)N[C@@H](Cc2ccccc2)C(N)=O)NC(=O)[C@@H]1Cc1ccccc1 [Compound 8] (H-Y[dOrn]G[NMeF]DPQRF-NH2; lactam 2-5)", "IC50", "µM", 0.168),
]

Next, consider the following compound.
Q: Tell me the measured IC50 of CN1C(=O)CNC(=O)[C@H](NC(=O)[C@@H](N)Cc2ccc(O)cc2)CNC(=O)C[C@@H](C(=O)N2CCC[C@H]2C(=O)N[C@@H](CCC(N)=O)C(=O)N[C@@H](CCCNC(=N)N)C(=O)N[C@@H](Cc2ccccc2)C(N)=O)NC(=O)[C@@H]1Cc1ccccc1 [Compound 10] (H-Y[dDap]G[NMeF]DPQRF-NH2; lactam 2-5) , please.
Result: 0.238
